Where these numbers come from: patent US20180036405A1

# maps each entry to its IC50 of A431 Proliferation
# target-desc: EGFR on A431 epidermoid carcinoma cells (human, UniProt P00533 25-1210)
# test-description: cell-based or functional assay
Just the number in Molar, nothing appended.

Reference set, count: 2
Field IC50 of A431 Proliferation (entry H1H141P (antibody, human IgG1, V domains shown, Human IgG1 Fc (H1H)) VH: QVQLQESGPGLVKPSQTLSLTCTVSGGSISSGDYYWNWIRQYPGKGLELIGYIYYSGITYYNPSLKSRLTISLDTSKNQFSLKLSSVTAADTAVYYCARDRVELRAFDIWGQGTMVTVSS VL: DIQMTQSPSSLSASVGDRVTITCQASQDISNYLNWYQQKPGKAPKLLINDASNLETGVPSRFSGSGSGTDFTFTISSLQPEDIATYYCQHYDSLPLTFGQGTRLEIK ) reads 1.41e-10

Field IC50 of A431 Proliferation (entry H1H086N (antibody, human IgG1, V domains shown, Tested in human IgG1 Fc format (H1H); also called H1M086N) VH: EVQLVESGGGLVQPGRSLRLSCAASGFTFDDYAMHWVRQAPGKGLEWVSGINWNSDKIAYADSVKGRFTISRDNAENSLFLQMNSLRPEDTALYYCVKRGDFWTDYYDYWGQGTLVTVSS VL: DIVMTQSPLSLPVTPGEPASISCRSSQSLLHSNGYNYLDWYLQKPGQSPHLLIYLVSTRASGVPDRFSGSGSGTDFTLKISRVEAEDVGVYYCMQALQTPWTFGQGTKVEIK ) reads 5.46e-10

// next entry
Field IC50 of A431 Proliferation (entry H1H151P (antibody, human IgG1, V domains shown, Human IgG1 Fc (H1H)) VH: QVQLQESGPGLVNPSQTLSLTCTVSGGSINSGDYYWSWVRQHPGKGLEWIGYIYYSGSTYYNPSLKSRVTISVDTSKNQFSLKLSSVTVADTAVYYCARVGYSKGYFDSWGQGTLVTVSS VL: DIQMTQSPSTLSASVGDRVTITCRASESISSWLAWYQQKPGKAPKVLIYDASSLESGVPSRFSGSGSGTEYTLTISSLQPDDFASYYCQQYKSYWTFGQGTKVEIK ) reads 2.77e-10
